- experimental target: 3-oxo-5-alpha-steroid 4-dehydrogenase 2 (Homo sapiens) (UniProt P31213)
- Sequence (whole entry): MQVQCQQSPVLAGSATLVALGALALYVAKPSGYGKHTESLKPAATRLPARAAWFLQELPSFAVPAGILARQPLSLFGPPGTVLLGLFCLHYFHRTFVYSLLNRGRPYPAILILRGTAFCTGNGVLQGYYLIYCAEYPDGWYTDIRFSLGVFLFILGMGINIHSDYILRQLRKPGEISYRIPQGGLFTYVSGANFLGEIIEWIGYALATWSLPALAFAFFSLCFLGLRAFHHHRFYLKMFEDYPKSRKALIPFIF
- assay procedure: In vitro inhibitory activity against Steroid 5-alpha-reductase type 2 at a concentration of 40 uM
Please provide measured inhibition for the entries that follow.
Numbers only, in %.

Below, each entry is followed by its recorded inhibition result.
{"compound": "CN1C(=S)CC[C@]2(C)c3ccc(Cl)cc3CC[C@@H]12", "quantitative result": 21.6}
{"compound": "CN1C(=S)CC[C@@]2(C)C1=CCc1cc(Cl)ccc12", "quantitative result": 13.2}
{"compound": "CN1C(=S)CC[C@@H]2c3ccccc3CC[C@H]21", "quantitative result": 19.9}
{"compound": "CN1CC(c2ccccc2)CCC1=O (stereo not given)", "quantitative result": 13.5}

Would you kindly look at the next entry?
Exercise: Any idea what inhibition was measured for CN1CC(c2ccc(Cl)cc2)CCC1=S (stereo not given) ?
Solution: 14

Source of measurements: ChEMBL document CHEMBL1133285
